Target: human factor XIa (Homo sapiens)
Construct: purchased Haemochrom Diagnostica GmbH, Essen, Germany
Sequence (P03951 388-625 limits assumed): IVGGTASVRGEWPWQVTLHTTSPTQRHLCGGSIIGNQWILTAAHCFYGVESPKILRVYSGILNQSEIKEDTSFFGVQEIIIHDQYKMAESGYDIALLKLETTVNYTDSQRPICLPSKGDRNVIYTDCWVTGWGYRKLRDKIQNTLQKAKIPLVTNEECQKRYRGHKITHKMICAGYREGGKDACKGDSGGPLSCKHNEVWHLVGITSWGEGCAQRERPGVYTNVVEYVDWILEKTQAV
Sequence (P03951 19-387 partner limits assumed): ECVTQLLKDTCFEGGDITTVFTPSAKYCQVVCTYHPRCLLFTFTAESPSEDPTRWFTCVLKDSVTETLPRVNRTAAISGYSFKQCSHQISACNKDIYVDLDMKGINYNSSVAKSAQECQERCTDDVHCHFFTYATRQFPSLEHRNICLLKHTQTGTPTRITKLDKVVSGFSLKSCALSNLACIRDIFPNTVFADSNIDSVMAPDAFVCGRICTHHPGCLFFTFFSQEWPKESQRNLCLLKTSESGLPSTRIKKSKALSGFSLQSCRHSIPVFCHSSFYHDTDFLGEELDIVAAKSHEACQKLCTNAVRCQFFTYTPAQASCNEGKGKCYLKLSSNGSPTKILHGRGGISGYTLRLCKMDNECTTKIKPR
Test: Inhibitory constants for factor XIa (substrate H-D-Lys(Z)-Pro-Arg-pNA, Chromozym PCa)
Assay type: biochemical
Settings: read-out: Ki F XIa
property-name: Ki (nM)

Some entries whose results are on file:
molecule	units-label	Ki
CC(C)(C)OC[C@@H](NS(=O)(=O)Cc1ccccc1)C(=O)N[C@@H](CC(=O)O)C(=O)NCc1ccc(C(=N)N)cc1	nM	390
N=C(N)c1ccc(CNC(=O)[C@H](CO)NC(=O)[C@@H](CO)NS(=O)(=O)Cc2ccccc2)cc1	nM	300
CC(C)(C)OCC(NS(=O)(=O)Cc1ccccc1)C(=O)NC(CCOCc1ccccc1)C(=O)NCc1ccc(C(=N)N)cc1 (stereo not shown)	nM	610
N=C(N)c1ccc(CNC(=O)[C@H](COCc2ccccc2)NC(=O)[C@@H](CO)NS(=O)(=O)Cc2ccccc2)cc1	nM	300
CC(C)(C)OC[C@@H](NS(=O)(=O)Cc1ccccc1)C(=O)NC(CC(=O)O)CC(=O)NCc1ccc(C(=N)N)cc1 (stereo partly shown)	nM	8200

(I) N=C(N)c1ccc(CNC(=O)CNC(=O)[C@@H](CO)NS(=O)(=O)Cc2ccc(CN)cc2)cc1
(II) N=C(N)c1ccc(CNC(=O)CNC(=O)C(CO)NS(=O)(=O)Cc2ccccc2)cc1 (stereo not shown)
Exercise: Which is greater in Ki, the first item I or the second item II ? # reply format: chosen label
Key: I

* * *

Quick record: Ki, human factor XIa (Homo sapiens).
property-name: Ki (nM)

(A) C[C@H](NC(=O)[C@@H](CO)NS(=O)(=O)Cc1ccc(C(=O)O)cc1)C(=O)NCc1ccc(C(=N)N)cc1 [Inhibitor 22]
(B) CC(C)(C)OC[C@@H](NS(=O)(=O)Cc1ccccc1)C(=O)N[C@@H](CO)CC(=O)NCc1ccc(C(=N)N)cc1 [Inhibitor 42]
Exercise: Between A and B , which one shows the smaller Ki number? # reply format: chosen label
Key: A

(1) CC(C)(C)OC[C@@H](NS(=O)(=O)Cc1ccc(C#N)cc1)C(=O)N1CCC[C@H]1C(=O)NCc1ccc(C(=N)N)cc1 [Inhibitor 51]
(2) COC(=O)c1ccc(CS(=O)(=O)N[C@H](CO)C(=O)N[C@@H](CO)C(=O)NCc2ccc(C(=N)N)cc2)cc1 [Inhibitor 24]
(3) N=C(N)c1ccc(CNC(=O)[C@@H]2CCCN2C(=O)[C@@H](CC2CCCCC2)NS(=O)(=O)Cc2cccc(CN)c2)cc1 [Inhibitor 55]
Exercise: Rank entries according to their Ki, from the largest number down. Give the labels in the order requested.
Key: 2, 3, 1
(2: 870 nM, 3: 170 nM, 1: 9.1 nM)

(A) CC(C)(C)OC[C@@H](NS(=O)(=O)Cc1ccccc1)C(=O)N[C@@H](CCC(N)=O)C(=O)NCc1ccc(C(=N)N)cc1 [Inhibitor 31]
(B) CC(C)(C)OC[C@@H](NS(=O)(=O)Cc1ccccc1)C(=O)N[C@@H](CN)C(=O)NCc1ccc(C(=N)N)cc1 [Inhibitor 33]
Exercise: Between A and B , which one shows the smaller Ki number? # reply format: chosen label
Key: A

* * *

Target: plasma kallikrein (PK) (Homo sapiens)
Sequence (P03952 391-638 limits assumed, species assumed): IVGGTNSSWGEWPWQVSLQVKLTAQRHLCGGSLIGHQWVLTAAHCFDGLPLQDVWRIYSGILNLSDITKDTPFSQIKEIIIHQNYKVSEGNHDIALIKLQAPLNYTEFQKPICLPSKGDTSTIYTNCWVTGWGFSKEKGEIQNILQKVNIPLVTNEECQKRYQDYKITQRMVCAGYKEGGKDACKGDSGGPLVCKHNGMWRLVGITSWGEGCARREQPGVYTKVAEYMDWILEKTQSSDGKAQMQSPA
Sequence (P03952 20-390 partner limits assumed, species assumed): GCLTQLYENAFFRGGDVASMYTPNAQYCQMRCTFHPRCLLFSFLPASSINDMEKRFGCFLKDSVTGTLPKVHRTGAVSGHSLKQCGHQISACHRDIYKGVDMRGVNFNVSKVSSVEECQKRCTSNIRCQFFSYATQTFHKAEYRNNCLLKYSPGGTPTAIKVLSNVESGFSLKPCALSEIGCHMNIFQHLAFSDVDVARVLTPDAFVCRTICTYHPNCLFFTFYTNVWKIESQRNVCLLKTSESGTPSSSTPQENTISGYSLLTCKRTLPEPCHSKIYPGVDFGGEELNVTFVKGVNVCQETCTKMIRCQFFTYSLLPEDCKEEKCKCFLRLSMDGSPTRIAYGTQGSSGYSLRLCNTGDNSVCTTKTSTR
Assay: Determining the inhibitory constants: inhibition of PK (substrate Bzl-Pro-Phe-Arg-pNA)
Conditions: Tris buffer pH 8.0, 25° C.; mean of at least three determinations
Experimental: The inhibitory effect for the individual enzymes was determined in analogy with a method which has already been described (Stürzebecher et al., J. Med. Chem. 40, 3091-3099, 1997). After 3 min, the reaction was terminated by adding 25 μl of acetic acid (50%) and the absorption at […] was determined using a Microplate Reader (Labsystems iEMS Reader MF). […]
pKi: −log10 of the molar value.
property-name: pKi

compound	pKi
CC(C)(C)OC[C@@H](NS(=O)(=O)Cc1ccccc1)C(=O)N[C@@H](CN)C(=O)NCc1ccc(C(=N)N)cc1	7.66
N=C(N)c1ccc(CNC(=O)[C@H](CO)NC(=O)[C@@H](CCc2ccccc2)NS(=O)(=O)Cc2ccccc2)cc1	7.72
CC(C)(C)OC[C@@H](NS(=O)(=O)Cc1ccc(CC(=O)O)cc1)C(=O)N1CCC[C@H]1C(=O)NCc1ccc(C(=N)N)cc1	7.80
CC(C)(C)OC[C@@H](NS(=O)(=O)Cc1ccccc1)C(=O)N1CCC[C@H]1C(=O)NCc1ccc(C(=N)N)cc1	8.19

(A) CC(C)(C)OC[C@@H](NS(=O)(=O)Cc1ccccc1)C(=O)N[C@@H](CO)C(=O)NCc1ccc(C(=N)N)cc1
(B) CC(C)(C)OCC(NS(=O)(=O)Cc1ccccc1)C(=O)NC(CCOCc1ccccc1)C(=O)NCc1ccc(C(=N)N)cc1 (centres unmarked)
(C) N=C(N)c1ccc(CNC(=O)[C@H](CO)NC(=O)[C@@H](CCc2ccncc2)NS(=O)(=O)Cc2ccccc2)cc1
(D) N=C(N)c1ccc(CNC(=O)[C@H](CO)NC(=O)[C@@H](CO)NS(=O)(=O)Cc2ccccc2)cc1
Exercise: Arrange items by their pKi values in increasing order. Give the labels in the order requested.
Key: D, A, C, B
